Cited source for all entries: patent US8952024B2

Tested on: johnsongrass (Sorghum halepense)
assay_comment: Test B pre-/postemergence plant response
Type: in vivo
condition_description: Preemergence, 31 g ai/ha; scale 0 to 100 (0 no effect, 100 complete control)
property_name: Plant response rating, Johnsongrass

CC(C)Cc1ncc(C(=O)C2=C(O)CCCC2=O)c(=O)n1-c1ccccc1 ... 0
CCCc1ncc(C(=O)C2=C(O)CCCC2=O)c(=O)n1CCC ... 0
O=C1CCCC(O)=C1C(=O)c1cnc(-c2ccccc2)n(-c2ccccc2Br)c1=O ... 0
Cc1ccc(C)c(-n2c(-c3ccccc3)ncc(C(=O)C3=C(O)CCCC3=O)c2=O)c1 ... 0
Cc1cc(F)ccc1-n1c(-c2ccccc2)ncc(C(=O)C2=C(O)CCCC2=O)c1=O ... 20
O=C1CCCC([O-])=C1C(=O)c1cnc(-c2ccccc2)n(-c2ccccc2)c1=O.[K+] ... 5
O=C1CCCC(O)=C1C(=O)c1cnc(-c2cccc(Br)c2)n(-c2ccccc2)c1=O ... 5
CCCCn1c(CCC)ncc(C(=O)C2=C(O)CCCC2=O)c1=O ... 0
Cc1ccc(Cl)cc1-n1c(-c2ccccc2)ncc(C(=O)C2=C(O)CCCC2=O)c1=O ... 10
Cc1cccc(-n2c(-c3ccccc3)ncc(C(=O)C3=C(O)CCCC3=O)c2=O)c1C ... 0

----------
System: bermudagrass (Cynodon dactylon)
assay_comment: Test B pre-/postemergence plant response
Assay type: in vivo
condition_description: Preemergence, 62 g ai/ha; scale 0 to 100, 0 no effect, 100 complete control
From the text: […] Treated plants and controls were maintained in a greenhouse for 13 to 15 days, after which time all treated plants were visually evaluated and compared to controls. […]
property_name: Plant response rating, Bermudagrass

CCCCn1c(CCC)ncc(C(=O)C2=C(O)CCCC2=O)c1=O [Compound 75] ... 100
COCCCn1c(-c2cc(F)cc(F)c2)ncc(C(=O)C2=C(O)C3CCC(C3)C2=O)c1=O (stereo not drawn) [Compound 244] ... 100
O=C1CCCC(O)=C1C(=O)c1cnc(-c2cccc(Cl)c2)n(-c2ccccc2)c1=O [Compound 34] ... 100
O=C1CCCC(O)=C1C(=O)c1cnc(-c2ccccc2)n(-c2ccccc2Br)c1=O [Compound 37] ... 80
CCCn1c(-c2ccccc2)ncc(C(=O)C2=C(O)CCCC2=O)c1=O [Compound 50] ... 100
Cc1ccc(F)c(-n2c(-c3ccccc3)ncc(C(=O)C3=C(O)CCCC3=O)c2=O)c1 [Compound 51] ... 98

----------
Parameter: Plant response rating, Bluegrass. Scope: all listed entries.
System: bluegrass (annual bluegrass, Poa annua)
assay_comment: Test D pre-/postemergence plant response
Format: in vivo
condition_description: Postemergence, 31 g ai/ha; scale 0 to 100 (0 no effect, 100 complete control)
property_name: Plant response rating, Bluegrass

CCCn1c(-c2ccccc2)ncc(C(=O)C2=C(O)C3CCC(C3)C2=O)c1=O (stereo not shown) [Compound 226] ... 0
O=C1CCCC(O)=C1C(=O)c1cnc(-c2ccccc2)n(C2CCCCC2)c1=O [Compound 128] ... 0
Cc1ccc(Cl)cc1-n1c(-c2ccccc2)ncc(C(=O)C2=C(O)CCCC2=O)c1=O [Compound 52] ... 25
O=C1CCCC(O)=C1C(=O)c1cnc(-c2cccs2)n(-c2ccccc2)c1=O [Compound 66] ... 0

----------
Parameter: Cocklebur plant response rating. Scope: all listed entries.
Test system: cocklebur (Xanthium strumarium)
assay_comment: Test B pre-/postemergence plant response
Format: in vivo
condition_description: Preemergence, 125 g ai/ha; 0 to 100 scale
property_name: Cocklebur plant response rating

O=C1CCCC(O)=C1C(=O)c1cnc(-c2ccccc2)n(-c2ccccc2Br)c1=O ... 0
O=C1CCCC(O)=C1C(=O)c1cnc(-c2ccccc2)n(-c2ccc(F)cc2)c1=O ... 95
Cc1cc(F)ccc1-n1c(-c2ccccc2)ncc(C(=O)C2=C(O)CCCC2=O)c1=O ... 0
O=C1CCCC(O)=C1C(=O)c1cnc(-c2ccccc2)n(-c2ccccc2)c1=O ... 80
Cc1cccc(-n2c(-c3ccccc3)ncc(C(=O)C3=C(O)CCCC3=O)c2=O)c1C ... 85
CCn1c(-c2ccccc2)ncc(C(=O)C2=C(O)CCCC2=O)c1=O ... 45

----------
Parameter: Plant response rating, Barnyardgrass. Scope: all listed entries.
Test system: barnyardgrass (Echinochloa crus-galli)
assay_comment: Test B flooded paddy test
Assay type: in vivo
condition_description: Flood (flooded paddy test), 31 g ai/ha; scale of 0 to 100 where 0 is no effect and 100 is complete control; 13 to 15 days
property_name: Plant response rating, Barnyardgrass

CCCn1c(-c2ccccc2)ncc(C(=O)C2=C(O)CCCC2=O)c1=O ... 0
O=C1CCCC(O)=C1C(=O)c1cnc(-c2cccc(Cl)c2)n(-c2ccccc2)c1=O ... 0
Cc1cccc(-n2c(-c3ccccc3)ncc(C(=O)C3=C(O)CCCC3=O)c2=O)c1 ... 10
COc1cccc(-n2c(-c3ccccc3)ncc(C(=O)C3=C(O)CCCC3=O)c2=O)c1 ... 0

----------
Test system: barnyardgrass (Echinochloa crus-galli)
assay_comment: Test B flooded paddy test
Format: in vivo
condition_description: Flood (flooded paddy test), 125 g ai/ha; scale 0 to 100, 0 is no effect, 100 is complete control; 13 to 15 days
Field 'label' (enum: Criterion met / Criterion not met). Set to Criterion met when Plant response rating, Barnyardgrass is strictly under 20; else Criterion not met.

CCn1c(-c2cccc(F)c2)ncc(C(=O)C2=C(O)C3CCC(C3)C2=O)c1=O (centres unmarked) ... Criterion met
O=C1CCCC(O)=C1C(=O)c1cnc(-c2cccs2)n(-c2ccccc2)c1=O ... Criterion met
Cc1ccc(Cl)cc1-n1c(-c2ccccc2)ncc(C(=O)C2=C(O)CCCC2=O)c1=O ... Criterion not met
CCCn1c(-c2cc(Cl)cc(Cl)c2)ncc(C(=O)C2=C(O)CCCC2=O)c1=O ... Criterion met
CCCc1ncc(C(=O)C2=C(O)CCCC2=O)c(=O)n1CCC ... Criterion met
O=C1CCCC(O)=C1C(=O)c1cnc(-c2ccccc2)n(C2CCCCCC2)c1=O ... Criterion met
Cc1ccc(-n2c(-c3cc(F)cc(F)c3)ncc(C(=O)C3=C(O)CCCC3=O)c2=O)cc1 ... Criterion not met
Cc1cccc(-c2ncc(C(=O)C3=C(O)CCCC3=O)c(=O)n2-c2cc(F)ccc2C)c1 ... Criterion not met
Cc1cccc(-c2ncc(C(=O)C3=C(O)CCCC3=O)c(=O)n2-c2ccc(F)cc2C)c1 ... Criterion met
CCCn1c(-c2ccccc2)ncc(C(=O)C2=C(O)CCCC2=O)c1=O ... Criterion not met
O=C1CCCC(O)=C1C(=O)c1cnc(-c2cc(F)cc(F)c2)n(CC2CCCO2)c1=O (centres unmarked) ... Criterion met
O=C1CCCC(O)=C1C(=O)c1cnc(-c2ccsc2)n(C2CCOCC2)c1=O ... Criterion not met
Cc1cc(-n2c(-c3cccc(Br)c3)ncc(C(=O)C3=C(O)CCCC3=O)c2=O)ccc1F ... Criterion met

----------
Test system: large crabgrass (Digitaria sanguinalis)
assay_comment: Test A pre-/postemergence plant response
Type: in vivo
condition_description: Postemergence, 125 g ai/ha; 0 to 100 scale where 0 is no effect and 100 is complete control
Parameter: Plant response rating, Crabgrass, Large. Scope: all listed entries.
property_name: Plant response rating, Crabgrass, Large

CCCn1c(-c2ccc(Br)cc2)ncc(C(=O)C2=C(O)CCCC2=O)c1=O ... 50
CCCn1c(-c2cccc(OC)c2)ncc(C(=O)C2=C(O)CCCC2=O)c1=O ... 80
CCCCn1c(CCC)ncc(C(=O)C2=C(O)CCCC2=O)c1=O ... 90
CCc1ccc(-n2c(-c3cccc(F)c3)ncc(C(=O)C3=C(O)CCCC3=O)c2=O)cc1 ... 60

----------
Test system: morningglory (Ipomoea spp.)
assay_comment: Test A pre-/postemergence plant response
Assay type: in vivo
condition_description: Preemergence, 125 g ai/ha; 0 to 100 scale, 0 = no effect, 100 = complete control
property_name: Plant response rating, Morningglory

CCOCCn1c(-c2ccccc2)ncc(C(=O)C2=C(O)CCCC2=O)c1=O ... 80
Cc1ccc(Cl)cc1-n1c(-c2ccccc2)ncc(C(=O)C2=C(O)CCCC2=O)c1=O ... 30
Cc1cccc(-c2ncc(C(=O)C3=C(O)CCCC3=O)c(=O)n2-c2ccc(F)cc2C)c1 ... 0
O=C1CCCC(O)=C1C(=O)c1cnc(C2CCC2)n(-c2ccccc2)c1=O ... 0
CCc1ccc(-n2c(-c3cccc(F)c3)ncc(C(=O)C3=C(O)CCCC3=O)c2=O)cc1 ... 0
Cc1cccc(-n2c(-c3ccccc3)ncc(C(=O)C3=C(O)CCCC3=O)c2=O)c1 ... 20
Cc1cc(-n2c(-c3cccc(Br)c3)ncc(C(=O)C3=C(O)CCCC3=O)c2=O)ccc1F ... 0
CCCc1ncc(C(=O)C2=C(O)CCCC2=O)c(=O)n1-c1cccc(C)c1 ... 0

----------
Parameter: Plant response rating, Corn. Scope: all listed entries.
Test system: corn (Zea mays)
assay_comment: Test B pre-/postemergence plant response
Type: in vivo
condition_description: Postemergence, 250 g ai/ha; scale 0 to 100 (0 no effect, 100 complete control)
Text: […] Treated plants and controls were maintained in a greenhouse for 13 to 15 days, after which time all treated plants were visually evaluated and compared to controls. […]
property_name: Plant response rating, Corn

CCCn1c(-c2ccccc2)ncc(C(=O)C2=C(O)CCCC2=O)c1=O [Compound 50] ... 25
CCCCn1c(CCC)ncc(C(=O)C2=C(O)CCCC2=O)c1=O [Compound 75] ... 55
COCCn1c(-c2ccco2)ncc(C(=O)C2=C(O)CCCC2=O)c1=O [Compound 111] ... 60
O=C1CCCC(O)=C1C(=O)c1cnc(-c2ccsc2)n(C2CCCCC2)c1=O [Compound 99] ... 80
CCCCCCn1c(-c2ccccc2)ncc(C(=O)C2=C(O)CCCC2=O)c1=O [Compound 94] ... 80
